meta.source: ChEMBL document CHEMBL1201861

# Test system: A673;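 further: growth inhibition of human A673 cells, read out through a cell viability assay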
# assay.protocol: cells
# Format: functional, cell-based, Homo sapiens
# condition.context: a673
# Description: SANGER: Inhibition of human A673 cell growth in a cell viability assay.
pIC50: −log10 of the molar value.
readout.label: pIC50

INSERT INTO results (chain, reported_measurement) VALUES
  ('BLEOMYCIN', 4.98);

----------
# System: TE-12;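 further: growth inhibition of TE-12 cells, read out by a cell viability assay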
# assay.protocol: cells
# Type: functional, cell-based, Homo sapiens
# condition.context: Homo sapiens, TE-12
# Description: SANGER: Inhibition of human TE-12 cell growth in a cell viability assay.
pIC50: −log10 of the molar value.
readout.label: pIC50

INSERT INTO results (compound, readout_label, reported_measurement) VALUES
  ('Nc1ccn([C@@H]2O[C@H](CO)[C@@H](O)C2(F)F)c(=O)n1 [GEMCITABINE]', 'pIC50', '< 5.99'),
  ('C#Cc1cccc(Nc2ncnc3cc(OCCOC)c(OCCOC)cc23)c1 [ERLOTINIB]', 'pIC50', 7.26),
  ('N#Cc1c(O)c2c(-c3ccc(-c4ccccc4O)cc3)csc2[nH]c1=O', 'pIC50', '< 5.99'),
  ('CCN(CC)CCCCNc1ncc2cc(-c3cc(OC)cc(OC)c3)c(NC(=O)NC(C)(C)C)nc2n1 [PD-173074]', 'pIC50', '< 5.70'),
  ('CC[C@H](CO)Nc1nc(NCc2ccccc2)c2ncn(C(C)C)c2n1 [SELICICLIB]', 'pIC50', '< 4.80'),
  ('OCCCNc1cc(-c2ccnc(Nc3cccc(Cl)c3)n2)ccn1', 'pIC50', 7.31),
  ('CO[C@H]1C[C@@H]2CC[C@@H](C)[C@@](O)(O2)C(=O)C(=O)N2CCCC[C@H]2C(=O)O[C@H]([C@H](C)C[C@@H]2CC[C@@H](OC(=O)C(C)(CO)CO)[C@H](OC)C2)CC(=O)[C@H](C)/C=C(\C)[C@@H](O)[C@@H](OC)C(=O)[C@H](C)C[C@H](C)/C=C/C=C/C=C/1C [TEMSIROLIMUS]', 'pIC50', '< 6.70');
